- Tested on: Mus musculus
- measurement notes: Toxicity in PS mouse allografted with mouse P388 cells assessed as survival at 200 ug/kg after 4 days
- Assay type: organism-based
- condition description: in vivo, 0.2 mg/kg, 96 h
recorded endpoint: Activity

Take a look at these entries with their results.
COc1cc2cc(c1Cl)N(C)C(=O)C[C@H](OC(=O)[C@H](C)N(C)C(=O)C(C)C)[C@]1(C)O[C@H]1[C@H](C)[C@@H]1C[C@@](OC)(NC(=O)O1)[C@H](OC)/C=C/C=C(\C)C2	Non-toxic
CCO[C@]12C[C@H](OC(=O)N1)[C@@H](C)[C@@H]1O[C@@]1(C)[C@@H](OC(=O)[C@H](C)N(C)C(=O)C(C)C)CC(=O)N(C)c1cc(cc(OC)c1Cl)C/C(C)=C/C=C/[C@H]2OC	Non-toxic
CCCS[C@]12C[C@H](OC(=O)N1)[C@@H](C)[C@@H]1O[C@@]1(C)[C@@H](OC(=O)[C@H](C)N(C)C(=O)C(C)C)CC(=O)N(C)c1cc(cc(OC)c1Cl)C/C(C)=C/C=C/[C@H]2OC	Non-toxic
CCC(=O)O[C@H]1CC(=O)N(C)c2cc(cc(OC)c2Cl)C/C(C)=C/C=C/[C@@H](OC)[C@@]2(O)C[C@H](OC(=O)N2)[C@@H](C)[C@@H]2O[C@@]12C	Toxic

Now look at this entry.
INPUT: Using the record for `CCCS[C@]12C[C@H](OC(=O)N1)[C@@H](C)[C@@H]1O[C@@]1(C)[C@@H](OC(=O)[C@H](C)N(C)C(C)=O)CC(=O)N(C)c1cc(cc(OC)c1Cl)C/C(C)=C/C=C/[C@H]2OC` , state its measured Activity.
OUTPUT: Non-toxic
